Property: pKi; scope: individual compounds
target: Alpha-1D adrenergic receptor (Homo sapiens, UniProt P25100); assay: Displacement of [3H]prazosin from human recombinant alpha1D adrenoceptor expressed in CHO cells after 30 mins by liquid scintillation counting
Sequence (P25100 whole entry): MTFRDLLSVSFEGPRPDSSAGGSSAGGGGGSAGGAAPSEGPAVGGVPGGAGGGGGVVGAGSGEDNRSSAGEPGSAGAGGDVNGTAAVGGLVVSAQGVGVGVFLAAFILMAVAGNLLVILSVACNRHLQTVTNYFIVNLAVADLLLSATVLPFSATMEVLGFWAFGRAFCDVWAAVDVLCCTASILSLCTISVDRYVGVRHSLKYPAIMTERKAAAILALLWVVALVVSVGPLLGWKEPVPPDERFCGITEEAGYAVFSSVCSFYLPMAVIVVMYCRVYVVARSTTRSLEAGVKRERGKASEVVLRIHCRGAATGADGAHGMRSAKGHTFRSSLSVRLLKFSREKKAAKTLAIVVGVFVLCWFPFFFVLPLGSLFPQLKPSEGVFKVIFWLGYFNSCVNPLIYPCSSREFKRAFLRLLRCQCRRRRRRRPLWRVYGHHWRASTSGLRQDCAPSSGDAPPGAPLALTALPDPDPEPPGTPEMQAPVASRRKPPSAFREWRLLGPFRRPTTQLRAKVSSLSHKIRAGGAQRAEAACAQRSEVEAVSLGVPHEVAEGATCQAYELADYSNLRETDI
pKi: −log10 of the molar value.
Quantity: pKi

INSERT INTO results (compound, quantity, censoring_sign, result) VALUES
  ('COc1ccccc1N1CCN(CC2COC3(CCCCC3)O2)CC1 (configuration not stated)', 'pKi', '<', 6.00),
  ('COc1ccccc1N1CCN(CC2COC3(CC[S+]([O-])CC3)O2)CC1 (configuration not stated)', 'pKi', '=', 7.37),
  ('COc1ccccc1N1CCN(CC2COC3(CCN(C(=O)C4CCCN4)CC3)O2)CC1 (configuration not stated)', 'pKi', '=', 7.57),
  ('COc1ccccc1N1CCN(CC2COC3(CCN(S(=O)(=O)c4cccs4)CC3)O2)CC1 (configuration not stated)', 'pKi', '=', 8.01),
  ('COc1ccccc1N1CCN(CC2COC3(CCS(=O)(=O)CC3)O2)CC1 (configuration not stated)', 'pKi', '=', 7.29),
  ('COc1ccccc1N1CCN(CC2COC3(CCN(C(=O)C(F)(F)F)CC3)O2)CC1 (configuration not stated)', 'pKi', '=', 6.38),
  ('COc1ccccc1N1CCN(CC2COC3(CCN(C(=O)NC(C)(C)C)CC3)O2)CC1 (configuration not stated)', 'pKi', '=', 7.45);

----------
target: UniProt:P25100; test: Displacement of [3H]prazosin from human recombinant alpha1D adrenoceptor expressed in CHO cells after 30 mins by liquid scintillation counting
I'd appreciate it if you marked entries MET when Ki is lower than 20 nM and NOT MET when it is not.

INSERT INTO assay_data (compound, assigned_category) VALUES
  ('COc1ccccc1N1CCN(CC2COC3(CCN(S(C)(=O)=O)CC3)O2)CC1 (stereo not given)', 'NOT MET'),
  ('COc1ccccc1N1CCN(CC2COC3(CCN(C(=O)c4ccco4)CC3)O2)CC1 (stereo not given)', 'NOT MET'),
  ('COc1ccccc1N1CCN(CC2COC3(CCN(Cc4ccccc4)CC3)O2)CC1 (stereo not given)', 'MET'),
  ('COc1ccccc1N1CCN(CC2COC3(CCN(C(C)=O)CC3)O2)CC1 (stereo not given)', 'NOT MET'),
  ('COc1ccccc1N1CCN(CC2COC3(CCN(S(=O)(=O)c4ccc(C)cc4)CC3)O2)CC1 (stereo not given)', 'MET'),
  ('COc1ccccc1N1CCN(CC2COC3(CCN(C(=O)Nc4ccccc4)CC3)O2)CC1 (stereo not given)', 'MET'),
  ('CCCCNC(=O)N1CCC2(CC1)OCC(CN1CCN(c3ccccc3OC)CC1)O2 (stereo not given)', 'MET'),
  ('COc1ccccc1N1CCN(CC2COC3(CCN(S(=O)(=O)c4ccc(OC(F)(F)F)cc4)CC3)O2)CC1 (stereo not given)', 'NOT MET'),
  ('COc1ccccc1N1CCN(CC2COC3(CCOCC3)O2)CC1 (stereo not given)', 'NOT MET'),
  ('COc1ccccc1N1CCN(CC2COC3(CCNCC3)O2)CC1 (stereo not given)', 'NOT MET'),
  ('COc1ccccc1N1CCN(CC2COC3(CCN(c4ccccn4)CC3)O2)CC1 (stereo not given)', 'NOT MET'),
  ('COc1ccccc1N1CCN(CC2COC3(CCN(S(=O)(=O)c4ccccc4)CC3)O2)CC1 (stereo not given)', 'MET'),
  ('COc1ccccc1N1CCN(CC2COC3(CCN(S(=O)(=O)c4cccc([N+](=O)[O-])c4)CC3)O2)CC1 (stereo not given)', 'MET'),
  ('COc1ccccc1N1CCN(CC2COC3(CCN(C(=O)c4ccc(C(F)(F)F)cc4)CC3)O2)CC1 (stereo not given)', 'MET'),
  ('COc1ccccc1N1CCN(CC2COC3(CCN(S(=O)(=O)c4ccc(Cl)cc4)CC3)O2)CC1 (stereo not given)', 'MET'),
  ('COc1ccccc1N1CCN(CC2COC3(CCSCC3)O2)CC1 (stereo not given)', 'MET'),
  ('COc1ccccc1N1CCN(CC2COC3(CCN(c4ccccc4)CC3)O2)CC1 (stereo not given)', 'MET'),
  ('COc1ccccc1N1CCN(CC2COC3(CCN(S(=O)(=O)c4ccc([N+](=O)[O-])cc4)CC3)O2)CC1 (stereo not given)', 'MET'),
  ('COc1ccccc1N1CCN(CC2COC3(CCN(C(=O)C4CCCCC4)CC3)O2)CC1 (stereo not given)', 'NOT MET');
